Measured values drawn from ChEMBL document CHEMBL2218924 for this set.

residual activity reference
target: Glycogen synthase kinase-3 alpha (Homo sapiens); details: at 1 µM
measurement_label: residual activity (%)

compound_string	quantity_unit	reading
COc1ccc(S(=O)(=O)N(CCO)c2ccccc2CN(C)C/C=C/c2ccc(Cl)cc2)cc1	%	100
NC(=O)c1ccc2[nH]c(-c3ccc(Oc4ccc(Cl)cc4)cc3)nc2c1	%	101
CO[C@H]1[C@@H](OC)C[C@H](C)[C@@H](OC)C2=CC(=O)C=C(NC(=O)/C(C)=C/C=C/[C@H](OC)[C@@H](OC(N)=O)/C(C)=C/[C@@H]1C)C2=O	%	100
CO[C@H]1C[C@@H]2CC[C@@H](C)[C@@](O)(O2)C(=O)C(=O)N2CCCC[C@H]2C(=O)O[C@H]([C@H](C)C[C@@H]2CC[C@@H](O)[C@H](OC)C2)CC(=O)[C@H](C)/C=C(\C)[C@@H](O)[C@@H](OC)C(=O)[C@H](C)C[C@H](C)/C=C/C=C/C=C/1C	%	117
COc1ccc(C(=O)Nc2sc3c(c2C(N)=O)CCCC3)cc1OC	%	121
N#C/C(=C(\N)Sc1ccc(N)cc1)c1ccccc1C(F)(F)F	%	89
O=Nc1c(-c2c(O)[nH]c3ccccc23)[nH]c2ccccc12	%	5

----------
biological target: Glycogen synthase kinase-3 beta (Homo sapiens) (UniProt P49841); conditions: at 10 µM
Sequence (P49841 whole entry, looked up): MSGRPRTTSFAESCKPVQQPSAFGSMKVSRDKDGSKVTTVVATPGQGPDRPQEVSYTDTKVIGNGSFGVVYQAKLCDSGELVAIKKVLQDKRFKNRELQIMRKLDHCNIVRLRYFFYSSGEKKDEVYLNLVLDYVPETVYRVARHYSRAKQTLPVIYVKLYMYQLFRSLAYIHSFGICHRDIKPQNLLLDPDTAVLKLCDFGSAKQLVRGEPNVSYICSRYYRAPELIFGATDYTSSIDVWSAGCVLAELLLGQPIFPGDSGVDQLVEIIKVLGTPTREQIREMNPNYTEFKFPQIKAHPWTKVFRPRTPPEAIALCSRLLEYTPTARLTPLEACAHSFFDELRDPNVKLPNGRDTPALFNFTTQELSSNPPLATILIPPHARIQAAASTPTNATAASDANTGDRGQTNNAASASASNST
Classification by residual activity follows these ranges: bottom range (below 70%), center range (70% to below 90%), top range (90% or more)

compound_string	classification
Cn1cc(/C=C2\C(=O)Nc3ccc(S(N)(=O)=O)cc32)c2ccccc21	bottom range
COc1cc2ncnc(Nc3ccc(O)c(Br)c3)c2cc1OC	center range
CC(=O)c1ccc(N2CCOCC2)cc1O	top range
COc1cc2ncnc(Nc3ccc(Oc4ccccc4)cc3)c2cc1OC	top range
COc1cccc(-c2cc(=O)c3ccccc3o2)c1N	top range
Cc1cccc(-c2[nH]c(C(C)(C)C)nc2-c2ccc3c(c2)OCO3)n1	top range
N#CCCc1ccc2c(c1)-c1[nH]c3ccc([N+](=O)[O-])cc3c1CC(=O)N2	bottom range
Nc1cccc(-c2cc3c(Oc4cccc(O)c4)ncnc3[nH]2)c1	bottom range
O=[N+]([O-])c1ccc(-c2nc(-c3ccc(F)cc3)c(-c3ccncc3)[nH]2)cc1	center range
Oc1c2ccccc2c2c3c(cccc13)N=N2	bottom range

----------
molecular target: Homeodomain-interacting protein kinase 2 (Homo sapiens) (UniProt Q9H2X6); settings: at 1 µM
Sequence (Q9H2X6 whole entry, looked up): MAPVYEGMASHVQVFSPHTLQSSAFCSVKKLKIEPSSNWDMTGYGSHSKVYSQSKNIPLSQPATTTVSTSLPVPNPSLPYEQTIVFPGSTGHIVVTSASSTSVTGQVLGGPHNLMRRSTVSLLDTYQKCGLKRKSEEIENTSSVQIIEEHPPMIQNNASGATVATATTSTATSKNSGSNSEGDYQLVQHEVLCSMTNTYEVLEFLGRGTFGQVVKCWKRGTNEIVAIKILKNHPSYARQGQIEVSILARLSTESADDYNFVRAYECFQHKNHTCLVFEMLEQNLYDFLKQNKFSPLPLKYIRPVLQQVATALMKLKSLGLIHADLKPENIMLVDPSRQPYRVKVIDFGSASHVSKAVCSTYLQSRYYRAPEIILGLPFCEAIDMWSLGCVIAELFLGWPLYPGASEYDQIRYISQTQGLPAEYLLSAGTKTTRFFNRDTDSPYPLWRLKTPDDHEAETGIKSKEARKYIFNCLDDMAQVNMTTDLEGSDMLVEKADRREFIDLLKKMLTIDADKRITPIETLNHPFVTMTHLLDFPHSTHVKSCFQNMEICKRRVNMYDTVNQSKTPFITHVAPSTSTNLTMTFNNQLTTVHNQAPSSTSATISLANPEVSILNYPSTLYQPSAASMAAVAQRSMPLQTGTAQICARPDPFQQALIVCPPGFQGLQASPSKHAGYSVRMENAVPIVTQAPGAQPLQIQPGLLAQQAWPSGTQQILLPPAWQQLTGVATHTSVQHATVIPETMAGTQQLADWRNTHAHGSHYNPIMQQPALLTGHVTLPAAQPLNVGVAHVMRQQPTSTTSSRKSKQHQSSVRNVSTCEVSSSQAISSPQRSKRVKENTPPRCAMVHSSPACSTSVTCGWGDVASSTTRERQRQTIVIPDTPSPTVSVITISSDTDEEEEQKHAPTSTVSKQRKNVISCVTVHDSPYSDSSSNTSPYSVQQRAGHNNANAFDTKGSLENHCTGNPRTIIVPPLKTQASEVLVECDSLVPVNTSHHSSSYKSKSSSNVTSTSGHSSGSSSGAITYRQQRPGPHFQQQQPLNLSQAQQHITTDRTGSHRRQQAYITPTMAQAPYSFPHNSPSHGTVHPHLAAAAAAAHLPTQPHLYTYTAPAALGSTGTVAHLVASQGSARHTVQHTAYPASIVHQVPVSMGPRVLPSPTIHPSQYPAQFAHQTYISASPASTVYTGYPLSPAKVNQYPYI
measurement_label: residual activity (%)

compound_string	measured_on	quantity_unit	reading
Cc1ccc(S(=O)(=O)/C=C/C#N)cc1	Homeodomain-interacting protein kinase 2 (Homo sapiens) (UniProt Q9H2X6)	%	101
Cc1cccc(-c2[nH]c(C(C)(C)C)nc2-c2ccc3c(c2)OCO3)n1	Homeodomain-interacting protein kinase 2 (Homo sapiens) (UniProt Q9H2X6)	%	97
Nc1ccc2ncnc(NCCc3ccc(Oc4ccccc4)cc3)c2c1	Homeodomain-interacting protein kinase 2 (Homo sapiens) (UniProt Q9H2X6)	%	77
Oc1c2ccccc2c2c3c(cccc13)N=N2	Homeodomain-interacting protein kinase 2 (Homo sapiens) (UniProt Q9H2X6)	%	55
Ic1cccc(CSc2nnc(-c3ccncc3)o2)c1	Homeodomain-interacting protein kinase 2 (Homo sapiens) (UniProt Q9H2X6)	%	76
N#CC(C#N)=C(N)/C(C#N)=C/c1ccc(O)cc1	Homeodomain-interacting protein kinase 2 (Homo sapiens) (UniProt Q9H2X6)	%	91
COc1cccc(-c2cc(=O)c3ccccc3o2)c1N	Homeodomain-interacting protein kinase 2 (Homo sapiens) (UniProt Q9H2X6)	%	109
O=Nc1c(-c2c(O)[nH]c3ccccc23)[nH]c2ccccc12	Homeodomain-interacting protein kinase 2 (Homo sapiens) (UniProt Q9H2X6)	%	48
c1ccc(-c2n[nH]cc2-c2ccnc3ccccc23)nc1	Homeodomain-interacting protein kinase 2 (Homo sapiens) (UniProt Q9H2X6)	%	98
COc1ccc(OC)c2c(=S)c3ccccc3[nH]c12	Homeodomain-interacting protein kinase 2 (Homo sapiens) (UniProt Q9H2X6)	%	98
N#C/C(=C(\N)Sc1ccc(N)cc1)c1ccccc1C(F)(F)F	Homeodomain-interacting protein kinase 2 (Homo sapiens) (UniProt Q9H2X6)	%	99
Oc1ccc(-c2nc(-c3ccc(F)cc3)c(-c3ccncc3)[nH]2)cc1	Homeodomain-interacting protein kinase 2 (Homo sapiens) (UniProt Q9H2X6)	%	99
